Below, each entry is listed alongside its reported IC50.
target: recombinant human Nav1.8 (Homo sapiens (Human), UniProt Q9Y5Y9); experiment: FRET-based membrane potential assay, recombinant human sodium channel Nav1.8; assay type: cell-based; conditions: HEK293 cells stably expressing recombinant human Nav1.8; veratridine + scorpion venom depolarization
Sequence (Q9Y5Y9 whole entry): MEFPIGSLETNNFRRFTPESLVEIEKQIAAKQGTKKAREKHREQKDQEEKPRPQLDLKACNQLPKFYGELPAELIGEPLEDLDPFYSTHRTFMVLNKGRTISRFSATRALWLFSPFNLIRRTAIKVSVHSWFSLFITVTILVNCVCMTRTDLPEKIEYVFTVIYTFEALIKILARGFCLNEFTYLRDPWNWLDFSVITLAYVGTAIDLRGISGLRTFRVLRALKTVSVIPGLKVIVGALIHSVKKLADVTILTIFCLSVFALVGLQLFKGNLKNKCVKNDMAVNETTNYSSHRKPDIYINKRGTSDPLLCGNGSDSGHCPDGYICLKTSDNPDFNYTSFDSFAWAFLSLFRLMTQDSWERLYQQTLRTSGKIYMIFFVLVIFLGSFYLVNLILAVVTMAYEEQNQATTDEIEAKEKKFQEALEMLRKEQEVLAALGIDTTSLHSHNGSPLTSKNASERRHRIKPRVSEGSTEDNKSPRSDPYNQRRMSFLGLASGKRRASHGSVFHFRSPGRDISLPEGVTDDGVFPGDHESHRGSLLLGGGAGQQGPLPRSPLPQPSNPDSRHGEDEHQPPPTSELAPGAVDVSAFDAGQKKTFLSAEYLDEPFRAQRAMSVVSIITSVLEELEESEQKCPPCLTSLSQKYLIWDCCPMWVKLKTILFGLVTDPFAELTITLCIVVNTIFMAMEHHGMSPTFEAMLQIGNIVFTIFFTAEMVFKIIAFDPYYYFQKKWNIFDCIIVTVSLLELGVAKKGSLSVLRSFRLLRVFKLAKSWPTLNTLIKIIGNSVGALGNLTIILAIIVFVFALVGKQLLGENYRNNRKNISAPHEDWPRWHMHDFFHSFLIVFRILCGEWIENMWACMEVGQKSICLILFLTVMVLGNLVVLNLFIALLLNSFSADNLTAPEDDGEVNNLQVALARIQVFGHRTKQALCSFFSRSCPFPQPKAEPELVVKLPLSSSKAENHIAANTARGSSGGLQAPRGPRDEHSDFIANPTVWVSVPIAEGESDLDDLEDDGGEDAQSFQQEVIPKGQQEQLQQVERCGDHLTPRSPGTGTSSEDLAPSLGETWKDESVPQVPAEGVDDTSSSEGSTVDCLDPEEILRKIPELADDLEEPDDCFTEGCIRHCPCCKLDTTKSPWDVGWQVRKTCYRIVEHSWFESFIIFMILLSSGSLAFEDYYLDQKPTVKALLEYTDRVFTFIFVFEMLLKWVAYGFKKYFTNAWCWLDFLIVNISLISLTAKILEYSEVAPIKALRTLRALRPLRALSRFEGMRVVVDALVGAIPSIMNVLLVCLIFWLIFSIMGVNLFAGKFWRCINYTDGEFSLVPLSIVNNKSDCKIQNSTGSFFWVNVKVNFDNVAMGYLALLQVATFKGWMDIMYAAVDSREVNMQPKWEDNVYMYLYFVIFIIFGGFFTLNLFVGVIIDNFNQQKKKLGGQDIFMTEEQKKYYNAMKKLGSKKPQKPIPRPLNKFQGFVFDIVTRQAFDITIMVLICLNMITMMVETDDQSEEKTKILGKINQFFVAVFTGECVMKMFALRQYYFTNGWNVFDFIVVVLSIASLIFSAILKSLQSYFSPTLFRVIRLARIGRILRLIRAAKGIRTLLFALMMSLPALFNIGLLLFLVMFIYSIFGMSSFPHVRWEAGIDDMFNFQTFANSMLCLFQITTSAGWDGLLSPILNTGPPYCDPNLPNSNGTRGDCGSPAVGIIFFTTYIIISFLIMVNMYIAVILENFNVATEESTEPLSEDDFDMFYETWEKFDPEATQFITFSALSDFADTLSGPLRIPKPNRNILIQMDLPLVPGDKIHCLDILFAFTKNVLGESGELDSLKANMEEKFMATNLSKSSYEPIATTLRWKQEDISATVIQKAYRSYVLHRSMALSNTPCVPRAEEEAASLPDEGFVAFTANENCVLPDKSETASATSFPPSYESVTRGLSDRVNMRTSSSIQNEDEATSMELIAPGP
endpoint: IC50 (nM)

- compound: "CC1(NC(=O)c2ccc3cc(Oc4ccc(C(F)(F)F)cn4)ccc3n2)COC1 [Example 48]"
  observedMeasurement: 774
- compound: "O=C(c1ccc2cc(Oc3ccc(C(F)(F)F)cn3)ccc2n1)N1CCNCC1C(F)F (centres unmarked) [Example 25]"
  observedMeasurement: 3830
- compound: "O=C1C[C@@H](NC(=O)c2ccc3cc(Oc4ccc(C(F)(F)F)cn4)ccc3n2)CN1 [Example 58]"
  observedMeasurement: 2840
- compound: "O=C(c1ccc2cc(Oc3ccc(C(F)(F)F)cn3)ccc2n1)N1CCC12COC2 [Example 505]"
  observedMeasurement: 2300
- compound: "O=C(c1ccc2cc(Oc3ccc(C(F)(F)F)cn3)ccc2n1)N1CCN2CC(F)(F)C[C@H]2C1 [Example 53]"
  observedMeasurement: 11000
- compound: "O=C(c1ccc2cc(Oc3ccc(C(F)(F)F)cn3)ccc2n1)N1CCC(N2CCOCC2)CC1 [Example 11]"
  observedMeasurement: 1690
- compound: "O=C(c1ccc2cc(Oc3ccc(C(F)(F)F)nc3)ccc2n1)N1CCNCC1 [Example 19]"
  observedMeasurement: 3960
- compound: "O=C(c1ccc2cc(Oc3ccc(C(F)(F)F)cn3)ccc2n1)N1CCNC(C(F)(F)F)C1 (centres unmarked) [Example 20]"
  observedMeasurement: 3230
- compound: "O=C(c1ccc2cc(Oc3ccc(C(F)(F)F)cn3)ccc2n1)N1CCNC[C@@H]1C(F)F [Example 603]"
  observedMeasurement: 3670
- compound: "CN(CC(F)F)C(=O)c1ccc2cc(Oc3ccc(C(F)(F)F)cn3)ccc2n1 [Example 622]"
  observedMeasurement: 2280
- compound: "CCN1CC(NC(=O)c2ccc3cc(Oc4ccc(C(F)(F)F)cn4)ccc3n2)CC1=O (centres unmarked) [Example 45]"
  observedMeasurement: 468

Entry source: patent US9452986B2
